assay: self-splicing fitness, log relative to wild type (ln ratio); higher = more splicing; Tetrahymena group I intron in knt gene, E. coli kanamycin selection, DiMSum; sequences stand for … in CUCUCU…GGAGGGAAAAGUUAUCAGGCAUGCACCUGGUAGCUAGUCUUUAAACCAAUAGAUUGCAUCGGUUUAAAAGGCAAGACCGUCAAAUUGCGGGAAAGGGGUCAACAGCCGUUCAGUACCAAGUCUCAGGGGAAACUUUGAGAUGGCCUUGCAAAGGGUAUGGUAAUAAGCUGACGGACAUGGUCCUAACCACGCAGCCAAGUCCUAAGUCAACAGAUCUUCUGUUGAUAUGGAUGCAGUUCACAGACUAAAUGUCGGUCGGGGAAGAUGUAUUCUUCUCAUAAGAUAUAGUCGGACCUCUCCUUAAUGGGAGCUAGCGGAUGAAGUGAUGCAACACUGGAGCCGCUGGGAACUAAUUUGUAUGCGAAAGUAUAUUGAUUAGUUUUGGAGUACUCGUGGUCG; conditions: 37 °C;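 also: selection with 25 µg/mL kanamycin versus none on LB agar overnight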
measured_quantity: self-splicing fitness (ln)
When you answer, write just the number.

Reference set, count: 5
CUAAAGCAAUAUUACGCGCU
-2.06
UGCCAGCAAUAUUACGCGGA
-1.32
CCUUAGCAAUAUUACGCGGC
-3.63
UCCAAGCAAUAUUACGGUAG
-2.21
AUUCAGCAAUAUUACGAUUG
-1.05

Looking up `ACGAAGCAAUAUUACGAAGU` , I found its self-splicing fitness (ln) recorded as -2.86

Looking up `CGAUAGCAAUAUUACGUCGC` , I found its self-splicing fitness (ln) recorded as -2.79

Looking up `AUACAGCAAUAUUACGCACG` , I found its self-splicing fitness (ln) recorded as -0.772

Looking up `CGGCAGCAAUAUUACGGACC` , I found its self-splicing fitness (ln) recorded as -1.26

Looking up `CUUAAGCAAUAUUACGAAGC` , I found its self-splicing fitness (ln) recorded as -2.17

Looking up `CGGCAGCAAUAUUACGCGCU` , I found its self-splicing fitness (ln) recorded as -1.99

Looking up `CUAAAGCAAUAUUACGUUAU` , I found its self-splicing fitness (ln) recorded as -3.34

Looking up `UUACAGCAAUAUUACGUUCG` , I found its self-splicing fitness (ln) recorded as -0.234

Looking up `CGAGAGCAAUAUUACGUUUU` , I found its self-splicing fitness (ln) recorded as -2.79

Looking up `GUCGAGCAAUAUUACGGUCU` , I found its self-splicing fitness (ln) recorded as -1.12

Looking up `GCCAAGCAAUAUUACGCGAC` , I found its self-splicing fitness (ln) recorded as -0.858

Looking up `GCACAGCAAUAUUACGGCUC` , I found its self-splicing fitness (ln) recorded as 0.523

Looking up `CUAAAGCAAUAUUACGGACU` , I found its self-splicing fitness (ln) recorded as -1.9

Looking up `GUAGAGCAAUAUUACGUCUG` , I found its self-splicing fitness (ln) recorded as -1.58

Looking up `ACUAAGCAAUAUUACGACAU` , I found its self-splicing fitness (ln) recorded as -0.0773

Looking up `CGCCAGCAAUAUUACGUUCG` , I found its self-splicing fitness (ln) recorded as 0.325

Looking up `UAGGAGCAAUAUUACGCGUU` , I found its self-splicing fitness (ln) recorded as -1.37

Looking up `AGUUAGCAAUAUUACGCUCA` , I found its self-splicing fitness (ln) recorded as -0.21

Looking up `GAAAAGCAAUAUUACGGACA` , I found its self-splicing fitness (ln) recorded as -0.269

Looking up `CCAGAGCAAUAUUACGUUUC` , I found its self-splicing fitness (ln) recorded as -3.61

====

test: self-splicing fitness, log relative to wild type (ln ratio); higher = more splicing; Tetrahymena group I intron in knt gene, E. coli kanamycin selection, DiMSum; sequences stand for … in CUCUCU…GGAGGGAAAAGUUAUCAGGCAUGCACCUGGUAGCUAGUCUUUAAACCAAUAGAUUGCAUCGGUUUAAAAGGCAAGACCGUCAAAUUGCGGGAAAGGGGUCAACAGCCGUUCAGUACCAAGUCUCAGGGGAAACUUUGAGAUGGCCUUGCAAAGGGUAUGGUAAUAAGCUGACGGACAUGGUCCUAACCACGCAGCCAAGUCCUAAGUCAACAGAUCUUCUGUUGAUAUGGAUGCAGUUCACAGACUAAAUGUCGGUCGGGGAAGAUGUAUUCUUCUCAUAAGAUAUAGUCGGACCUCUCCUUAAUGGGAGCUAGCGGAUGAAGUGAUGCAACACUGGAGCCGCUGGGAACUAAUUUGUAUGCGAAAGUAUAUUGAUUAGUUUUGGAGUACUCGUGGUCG; conditions: 37 °C
Short version: self-splicing fitness (ln) at least -2 is Fulfilled, less is Not fulfilled.

Example entries and their recorded answers appear below.
CACCAGCAAUAUUACGCCGU
Not fulfilled
CUAUAGCAAUAUUACGUAGC
Not fulfilled
CGUCAGCAAUAUUACGUGUC
Not fulfilled
ACUAAGCAAUAUUACGCUUA
Not fulfilled
UUUCAGCAAUAUUACGGCAC
Not fulfilled
GACGAGCAAUAUUACGCAAU
Not fulfilled
CACUAGCAAUAUUACGCCAA
Not fulfilled
GACGAGCAAUAUUACGCAGU
Not fulfilled
UGUAAGCAAUAUUACGUAUG
Fulfilled
UUGCAGCAAUAUUACGCAAA
Not fulfilled

Qu. Given the entry `UAAAAGCAAUAUUACGGGUA` , answer whether its self-splicing fitness (ln) meets or surpasses -2.
Ans. Fulfilled

Qu. Given the entry `UAGUAGCAAUAUUACGUAGA` , answer whether its self-splicing fitness (ln) meets or surpasses -2.
Ans. Fulfilled

Qu. Given the entry `UGACAGCAAUAUUACGCAGU` , answer whether its self-splicing fitness (ln) meets or surpasses -2.
Ans. Not fulfilled

Qu. Given the entry `GAGCAGCAAUAUUACGCGAA` , answer whether its self-splicing fitness (ln) meets or surpasses -2.
Ans. Fulfilled

====

experiment: self-splicing fitness, log relative to wild type (ln ratio); higher = more splicing; Tetrahymena group I intron in knt gene, E. coli kanamycin selection, DiMSum; sequences stand for … in CUCUCU…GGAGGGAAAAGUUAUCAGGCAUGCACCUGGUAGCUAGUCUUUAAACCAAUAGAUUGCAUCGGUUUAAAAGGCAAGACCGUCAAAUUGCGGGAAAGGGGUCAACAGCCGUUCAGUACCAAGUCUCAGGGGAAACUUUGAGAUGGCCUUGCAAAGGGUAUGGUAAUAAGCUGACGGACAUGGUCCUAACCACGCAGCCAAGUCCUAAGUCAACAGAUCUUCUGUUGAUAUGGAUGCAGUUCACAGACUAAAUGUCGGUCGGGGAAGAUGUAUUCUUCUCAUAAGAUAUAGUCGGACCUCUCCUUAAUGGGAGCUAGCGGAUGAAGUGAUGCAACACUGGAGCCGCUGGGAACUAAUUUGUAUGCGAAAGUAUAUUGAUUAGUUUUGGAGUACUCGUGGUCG; conditions: 30 °C
measured_quantity: self-splicing fitness (ln)
When you answer, write just the number.

GCAAAGCAAUAUUACGUGAC
-2.78
AUCUAGCAAUAUUACGCUUU
-2.3
ACGCAGCAAUAUUACGAUUC
-2.28
CAUAAGCAAUAUUACGUACA
-3.09
UACAAGCAAUAUUACGUUGA
-2.72

Looking up `UUCUAGCAAUAUUACGCCCU` , I found its self-splicing fitness (ln) recorded as -2.51

Looking up `UUACAGCAAUAUUACGGUGA` , I found its self-splicing fitness (ln) recorded as -1.03

Looking up `UUGUAGCAAUAUUACGUGAU` , I found its self-splicing fitness (ln) recorded as -3.14

Looking up `UCCCAGCAAUAUUACGUUUG` , I found its self-splicing fitness (ln) recorded as -3.67

Looking up `CUGAAGCAAUAUUACGCUAC` , I found its self-splicing fitness (ln) recorded as -3.7

Looking up `UUUUAGCAAUAUUACGCACG` , I found its self-splicing fitness (ln) recorded as -0.889

====

experiment: self-splicing fitness, log relative to wild type (ln ratio); higher = more splicing; Tetrahymena group I intron in knt gene, E. coli kanamycin selection, DiMSum; sequences stand for … in CUCUCU…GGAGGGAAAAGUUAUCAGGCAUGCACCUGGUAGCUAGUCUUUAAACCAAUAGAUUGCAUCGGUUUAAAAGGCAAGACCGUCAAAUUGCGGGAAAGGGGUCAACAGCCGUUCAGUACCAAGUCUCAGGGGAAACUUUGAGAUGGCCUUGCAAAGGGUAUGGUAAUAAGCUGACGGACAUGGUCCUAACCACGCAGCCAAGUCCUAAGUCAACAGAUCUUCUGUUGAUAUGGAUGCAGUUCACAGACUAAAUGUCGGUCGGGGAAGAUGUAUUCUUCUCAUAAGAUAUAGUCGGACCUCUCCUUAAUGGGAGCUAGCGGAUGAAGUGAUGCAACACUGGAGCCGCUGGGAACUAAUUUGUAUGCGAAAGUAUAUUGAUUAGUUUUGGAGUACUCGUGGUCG; conditions: 30 °C
Short version: self-splicing fitness (ln) at least -3 is T, less is F.

Example entries and their recorded answers appear below.
CCCAAGCAAUAUUACGAUCG
F
UGUCAGCAAUAUUACGGUGC
F
UUAGAGCAAUAUUACGGGUG
F
AGUCAGCAAUAUUACGCGAU
F

Qu. Given the entry `GGCCAGCAAUAUUACGCGCA` , answer whether its self-splicing fitness (ln) meets or surpasses -3.
Ans. T

Qu. Given the entry `UACUAGCAAUAUUACGCGAU` , answer whether its self-splicing fitness (ln) meets or surpasses -3.
Ans. T

Qu. Given the entry `ACCAAGCAAUAUUACGCUAA` , answer whether its self-splicing fitness (ln) meets or surpasses -3.
Ans. F

Qu. Given the entry `CUCGAGCAAUAUUACGGCGU` , answer whether its self-splicing fitness (ln) meets or surpasses -3.
Ans. T

Qu. Given the entry `GCGUAGCAAUAUUACGGUAC` , answer whether its self-splicing fitness (ln) meets or surpasses -3.
Ans. T

Qu. Given the entry `ACUUAGCAAUAUUACGCAUU` , answer whether its self-splicing fitness (ln) meets or surpasses -3.
Ans. T

Qu. Given the entry `AGUUAGCAAUAUUACGGAUG` , answer whether its self-splicing fitness (ln) meets or surpasses -3.
Ans. T
